# System: OVCAR-3
# protocol-notes: Growth inhibition of human OVCAR-3 cells
# Assay type: functional
One threshold, 2000 nM, splits the recorded GI50 values: lower ones are Criterion met, equal or higher ones are Criterion not met.

Solved entries:
[[record]]
molecule = "COc1ccc(-c2cn(-c3cccc(C(=O)/C=C/c4ccc(O)c(OC)c4)c3)c(=O)[nH]2)cc1"
label = "Criterion not met"

[[record]]
molecule = "O=C(/C=C/c1cccc(O)c1)c1cccc(-n2cc(-c3ccccc3)[nH]c2=O)c1"
label = "Criterion not met"

[[record]]
molecule = "COc1cc(/C=C/C(=O)c2cccc(-n3cc(-c4ccc(Cl)cc4)[nH]c3=O)c2)cc(OC)c1OC"
label = "Criterion not met"

[[record]]
molecule = "COc1ccc(-c2cn(-c3cccc(C(=O)/C=C/c4cc(OC)c(OC)c(OC)c4)c3)c(=O)[nH]2)cc1"
label = "Criterion met"


Here is the next item to consider.
Input "COc1cc(/C=C/C(=O)c2cccc(-n3cc(-c4ccccc4)[nH]c3=O)c2)ccc1O" ; condition: GI50 strictly below 2000 nM. Does it hold?
Criterion not met
